Data provenance: paper PMC6329626

test system: CYP3A (flucloxacillin 5′-hydroxylation); assay: Inhibition of 5′-HM-FLX formation by pooled HLM by CYP-specific inhibitors; format: biochemical, human; conditions: human, pooled human liver microsomes, probe flucloxacillin (formation of 5′-HM-FLX), 10 and 100 μM
ENDPOINT_LABEL: inhibition at 1 μM
Respond with a number, then the unit of measure.

(Q) Give its inhibition at 1 μM value. Item: CC(=O)N1CCN(c2ccc(OCC3COC(Cn4ccnc4)(c4ccc(Cl)cc4Cl)O3)cc2)CC1 (stereo not shown) [ketoconazole]
(A) 50%
